- target-or-test-system: HLA-A*02:01 (Homo sapiens, UniProt P04439, D140Y/D185E/D98H/E176V/E277Q/G131W/G231S/I119V/I121R/I166T/I218V/L300P/L318F/N151K/N90K/P208A/P217A/Q86G/Q94H/R138H/R169H/T345S)
- assay-overview: MHC binding assay (UV-ligand exchange, beta2m ELISA, peptide exchange yield)
- condition-summary: binding of HLA-class I restricted peptides to HLA-A*02:01, ranged by peptide exchange yield (UV-ligand exchange, β2m ELISA)
quantity-measured: Peptide exchange

[
  {
    "substance": "243 (LLLNELPSV; listed as Homo sapiens) [compound 243]",
    "Peptide exchange": "″+++″ (≥50% = +++)"
  },
  {
    "substance": "85 (KMSELRVTL; listed as Homo sapiens) [compound 85]",
    "Peptide exchange": "″+++″ (≥50% = +++)"
  },
  {
    "substance": "316 (ILLERLWYV; listed as Homo sapiens) [compound 316]",
    "Peptide exchange": "″+++″ (≥50% = +++)"
  },
  {
    "substance": "276 (ALFTFSPLTV; listed as Homo sapiens) [compound 276]",
    "Peptide exchange": "″+++″ (≥50% = +++)"
  },
  {
    "substance": "141 (YLDFSNNRL; listed as Homo sapiens) [compound 141]",
    "Peptide exchange": "″++″ (≥20% = ++)"
  }
]

Memo: 144 (YIMEPSIFNTL; listed as Homo sapiens) [compound 144] , reported Peptide exchange: ″+++″ (≥50% = +++)

Entry 453 (KLLEATSAV; listed as Homo sapiens) [compound 453] ; Peptide exchange = ″++″ (≥20% = ++)

* * *

- target-or-test-system: HLA-A*02:01 (Homo sapiens, UniProt P04439, D140Y/D185E/D98H/E176V/E277Q/G131W/G231S/I119V/I121R/I166T/I218V/L300P/L318F/N151K/N90K/P208A/P217A/Q86G/Q94H/R138H/R169H/T345S)
- assay-overview: MHC binding assay (UV-ligand exchange, beta2m ELISA, peptide exchange yield)
- condition-summary: binding of HLA-class I restricted peptides to HLA-A*02:01, ranged by peptide exchange yield (UV-ligand exchange, β2m ELISA)
- Description: Candidate peptides for T cell based therapies according to the present invention were further tested for their MHC binding capacity (affinity). The individual peptide-MHC complexes were produced by UV-ligand exchange, where a UV-sensitive peptide is cleaved upon UV-irradiation, and exchanged with the peptide of interest as analyzed. Only peptide candidates that can effectively bind and stabilize the peptide-receptive MHC molecules prevent dissociation of the MHC complexes. […]
quantity-measured: Peptide exchange

Below, each entry is followed by its recorded Peptide exchange result.
[
  {
    "substance": "133 (KVLSNIHTV; listed as Homo sapiens) [compound 133]",
    "Peptide exchange": "″++″ (≥20% = ++)"
  },
  {
    "substance": "375 (SLTETIEGV; listed as Homo sapiens) [compound 375]",
    "Peptide exchange": "″++″ (≥20% = ++)"
  },
  {
    "substance": "143 (LLLDITPEI; listed as Homo sapiens) [compound 143]",
    "Peptide exchange": "″++++″ (≥75% = ++++)"
  },
  {
    "substance": "503 (SLNHFTHSV; listed as Homo sapiens) [compound 503]",
    "Peptide exchange": "″+++″ (≥50% = +++)"
  },
  {
    "substance": "321 (GLFEDVTQPGILL; listed as Homo sapiens) [compound 321]",
    "Peptide exchange": "″++++″ (≥75% = ++++)"
  }
]

Continue with the next substance.
The reported Peptide exchange of the substance 191 (LLQEGQALEYV; listed as Homo sapiens) [compound 191] was ″++″ (≥20% = ++)

* * *

- target-or-test-system: HLA-A*02:01 (Homo sapiens, UniProt P04439, D140Y/D185E/D98H/E176V/E277Q/G131W/G231S/I119V/I121R/I166T/I218V/L300P/L318F/N151K/N90K/P208A/P217A/Q86G/Q94H/R138H/R169H/T345S)
- assay-overview: MHC binding assay (UV-ligand exchange, beta2m ELISA, peptide exchange yield)
- condition-summary: binding of HLA-class I restricted peptides to HLA-A*02:01, ranged by peptide exchange yield (UV-ligand exchange, β2m ELISA)
- Text: Candidate peptides for T cell based therapies according to the present invention were further tested for their MHC binding capacity (affinity). The individual peptide-MHC complexes were produced by UV-ligand exchange, where a UV-sensitive peptide is cleaved upon UV-irradiation, and exchanged with the peptide of interest as analyzed. Only peptide candidates that can effectively bind and stabilize the peptide-receptive MHC molecules prevent dissociation of the MHC complexes. […]
quantity-measured: Peptide exchange

Take a look at these entries with their results.
[
  {
    "substance": "324 (FLYDEIEAEV; listed as Homo sapiens) [compound 324]",
    "Peptide exchange": "″+++″ (≥50% = +++)"
  },
  {
    "substance": "462 (KLAKQPETV; listed as Homo sapiens) [compound 462]",
    "Peptide exchange": "″+++″ (≥50% = +++)"
  },
  {
    "substance": "389 (LLADVTHLL; listed as Homo sapiens) [compound 389]",
    "Peptide exchange": "″++″ (≥20% = ++)"
  },
  {
    "substance": "79 (SLFIGEKAVLL; listed as Homo sapiens) [compound 79]",
    "Peptide exchange": "″+++″ (≥50% = +++)"
  },
  {
    "substance": "88 (FLLVGDLMAV; listed as Homo sapiens) [compound 88]",
    "Peptide exchange": "″+++″ (≥50% = +++)"
  }
]

Entry 400 (SLLTEQDLWTV; listed as Homo sapiens) [compound 400] ; Peptide exchange = ″++″ (≥20% = ++)

# substance 524 (ALIENLTHQI; listed as Homo sapiens) [compound 524] ; its Peptide exchange = ″++″ (≥20% = ++)

// Peptide exchange lookup, substance = 208 (KISPVTFSV; listed as Homo sapiens) [compound 208] , result: ″+++″ (≥50% = +++)

According to the records, this substance 45 (SLWQDIPDV; listed as Homo sapiens) [compound 45] displays Peptide exchange of ″+++″ (≥50% = +++)

* * *

- target-or-test-system: HLA-A*02:01 (Homo sapiens, UniProt P04439, D140Y/D185E/D98H/E176V/E277Q/G131W/G231S/I119V/I121R/I166T/I218V/L300P/L318F/N151K/N90K/P208A/P217A/Q86G/Q94H/R138H/R169H/T345S)
- assay-overview: MHC binding assay (UV-ligand exchange, beta2m ELISA, peptide exchange yield)
- condition-summary: binding of HLA-class I restricted peptides to HLA-A*02:01, ranged by peptide exchange yield (UV-ligand exchange, β2m ELISA)
quantity-measured: Peptide exchange

Example entries and their recorded answers appear below.
[
  {
    "substance": "431 (SLVNVVPKL; listed as Homo sapiens) [compound 431]",
    "Peptide exchange": "″++″ (≥20% = ++)"
  },
  {
    "substance": "66 (FLDENIGGVAV; listed as Homo sapiens) [compound 66]",
    "Peptide exchange": "″+++″ (≥50% = +++)"
  },
  {
    "substance": "194 (ALPLFVITV; listed as Homo sapiens) [compound 194]",
    "Peptide exchange": "″+++″ (≥50% = +++)"
  },
  {
    "substance": "356 (KLLGKLPEL; listed as Homo sapiens) [compound 356]",
    "Peptide exchange": "″+++″ (≥50% = +++)"
  }
]

The measured Peptide exchange associated with 399 (YLFEPLYHV; listed as Homo sapiens) [compound 399] reads ″+++″ (≥50% = +++)

Entry 523 (YQIPRTFTL; listed as Homo sapiens) [compound 523] , Peptide exchange reported as ″++″ (≥20% = ++)

* * *

- target-or-test-system: HLA-A*02:01 (Homo sapiens, UniProt P04439, D140Y/D185E/D98H/E176V/E277Q/G131W/G231S/I119V/I121R/I166T/I218V/L300P/L318F/N151K/N90K/P208A/P217A/Q86G/Q94H/R138H/R169H/T345S)
- assay-overview: MHC binding assay (UV-ligand exchange, beta2m ELISA, peptide exchange yield)
- condition-summary: binding of HLA-class I restricted peptides to HLA-A*02:01, ranged by peptide exchange yield (UV-ligand exchange, β2m ELISA)
quantity-measured: Peptide exchange

[
  {
    "substance": "264 (SLQEQLHSV; listed as Homo sapiens) [compound 264]",
    "quantity-measured": "Peptide exchange",
    "value": "″+++″ (≥50% = +++)"
  },
  {
    "substance": "295 (VLDRESPNV; listed as Homo sapiens) [compound 295]",
    "quantity-measured": "Peptide exchange",
    "value": "″+++″ (≥50% = +++)"
  },
  {
    "substance": "242 (AIAYILQGV; listed as Homo sapiens) [compound 242]",
    "quantity-measured": "Peptide exchange",
    "value": "″++″ (≥20% = ++)"
  },
  {
    "substance": "500 (SLMEDQVLQL; listed as Homo sapiens) [compound 500]",
    "quantity-measured": "Peptide exchange",
    "value": "″+++″ (≥50% = +++)"
  },
  {
    "substance": "14 (AAYGGLNEKSFV; listed as Homo sapiens) [compound 14]",
    "quantity-measured": "Peptide exchange",
    "value": "″+++″ (≥50% = +++)"
  },
  {
    "substance": "301 (FLVEDLVDSL; listed as Homo sapiens) [compound 301]",
    "quantity-measured": "Peptide exchange",
    "value": "″+++″ (≥50% = +++)"
  },
  {
    "substance": "115 (AIAGAGILYGV; listed as Homo sapiens) [compound 115]",
    "quantity-measured": "Peptide exchange",
    "value": "″++″ (≥20% = ++)"
  },
  {
    "substance": "285 (QLLHVGVTV; listed as Homo sapiens) [compound 285]",
    "quantity-measured": "Peptide exchange",
    "value": "″+++″ (≥50% = +++)"
  },
  {
    "substance": "238 (YLISFQTHI; listed as Homo sapiens) [compound 238]",
    "quantity-measured": "Peptide exchange",
    "value": "″+++″ (≥50% = +++)"
  },
  {
    "substance": "362 (TLYGLSVLL; listed as Homo sapiens) [compound 362]",
    "quantity-measured": "Peptide exchange",
    "value": "″+++″ (≥50% = +++)"
  }
]

Record 131 (FVPPVTVFPSL; listed as Homo sapiens) [compound 131] . Reported Peptide exchange: ″++″ (≥20% = ++)

The substance listed as 504 (GLSDGNPSL; listed as Homo sapiens) [compound 504] has a reported Peptide exchange of ″++″ (≥20% = ++)

Entry under test: 224 (TLIDAQWVL; listed as Homo sapiens) [compound 224] . Its Peptide exchange was ″+++″ (≥50% = +++)

Entry 439 (YLLQEIYGI; listed as Homo sapiens) [compound 439] — recorded Peptide exchange = ″+++″ (≥50% = +++)

# Peptide exchange (substance: 469 (YLASDEITTV; listed as Homo sapiens) [compound 469] ) is ″+++″ (≥50% = +++)

513 (SLWPSPEQL; listed as Homo sapiens) [compound 513] yielded Peptide exchange of ″++″ (≥20% = ++)

Summary for this substance, 129 (GLLDGGVDILL; listed as Homo sapiens) [compound 129] : Peptide exchange is ″+++″ (≥50% = +++)

The recorded Peptide exchange for 81 (FLFSQLQYL; listed as Homo sapiens) [compound 81] is ″++″ (≥20% = ++)

The reported numbers originate from patent US10253076B2.
